Each recorded value in this set is attributed to paper PMC9861092.

The compounds listed here are annotated with their CC50.
Assay: in vitro
Conditions: African green monkey
Reply with just the number (in µM).

Worked cases, CC50 given:
compound=CC(C)=CCC/C(C)=C/C[C@@]12OC(C)(C)[C@H](Cl)C[C@]1(Cl)C(=O)c1c(O)cc(O)cc1C2=O result=5.79
compound="CC(=CCC12OC(C)(C)C(Cl)CC1(Cl)C(=O)c1c(O)cc(O)cc1C2=O)CCC(=O)C(C)C (stereo not drawn)" result=30.8

Field: next compound
Reported CC50 of C=C1CC[C@H](Cl)C(C)(C)C1C[C@@]12OC(C)(C)[C@H](Cl)C[C@]1(Cl)C(=O)c1c(O)cc(O)cc1C2=O (stereo partly drawn) : 19.6
